Tested on: Colo320DM
Assay: Colo320DM cell viability
Assay type: cell-based, human
pIC50: −log10 of the molar value. Where a SMILES comes first, the peptide text is derived from it. Bridges are numbered along the chain shown (N, C = ends). [ ]: non-standard residue; d: D form. 2Nal = N[C@@H](Cc1ccc2ccccc2c1)C(=O)O; Cba = N[C@@H](CC1CCC1)C(=O)O; S5 = C=CCCC[C@](C)(N)C(=O)O
Give measured pIC50 for each item. Keep answers brief.

Examples with answers:
- CC[C@H](C)[C@@H]1NC(=O)[C@@](C)(NC(=O)[C@H](CCCNC(=N)N)NC(=O)[C@H](CC(C)C)NC(=O)[C@@H](NC(=O)[C@H](CCC(N)=O)NC(=O)[C@H](CC(C)C)NC(C)=O)[C@@H](C)O)CCCC=CCCC[C@@](C)(C(=O)N[C@@H](CC2CCC2)C(=O)N[C@@H](Cc2ccc3ccccc3c2)C(N)=O)NC(=O)[C@H](CCCNC(=N)N)NC(=O)[C@H](CCC(N)=O)NC1=O [SEQ ID NO: 107, LQTLRXIQRX(CBA)(2-Nal)] (Ac-LQTLR[S5]IQR[S5][Cba][2Nal]-NH2; staple 6-10): < 5.30
- CC[C@H](C)[C@@H]1NC(=O)[C@@](C)(NC(=O)[C@H](CCCNC(=N)N)NC(=O)[C@H](CC(C)C)NC(=O)[C@@H](NC(=O)[C@H](CCC(=O)O)NC(=O)[C@H](CC(C)C)NC(C)=O)[C@@H](C)O)CCCC=CCCC[C@@](C)(C(=O)N[C@@H](CC2CCC2)C(=O)N[C@@H](Cc2ccc3ccccc3c2)C(N)=O)NC(=O)[C@H](CCCNC(=N)N)NC(=O)[C@H](CCC(N)=O)NC1=O [SEQ ID NO: 109, LETLRXIQRX(CBA)(2-Nal)] (Ac-LETLR[S5]IQR[S5][Cba][2Nal]-NH2; staple 6-10): < 5.30

Req: Give its pIC50 value. Item: CC[C@H](C)[C@@H]1NC(=O)[C@@](C)(NC(=O)[C@H](CCCNC(=N)N)NC(=O)[C@H](CC(C)C)NC(=O)[C@@H](NC(=O)[C@H](CCC(N)=O)N(C)C(=O)[C@H](CC(C)C)NC(C)=O)[C@@H](C)O)CCCC=CCCC[C@@](C)(C(=O)N[C@@H](CC2CCC2)C(=O)N[C@@H](Cc2ccc3ccccc3c2)C(=O)NCCC(=O)NCCC(N)=O)NC(=O)[C@H](CCCNC(=N)N)NC(=O)[C@H](CCC(N)=O)NC1=O (single isomer, unassigned)
Resp: 5.51

---

System: Colo320DM
Assay: Colo320DM cell viability
Assay type: cell-based, human
Where a SMILES comes first, the peptide text is derived from it. Bridges are numbered along the chain shown (N, C = ends). [ ]: non-standard residue; d: D form. 2Nal = N[C@@H](Cc1ccc2ccccc2c1)C(=O)O; NMeQ = CN[C@@H](CCC(N)=O)C(=O)O; Cba = N[C@@H](CC1CCC1)C(=O)O; S5 = C=CCCC[C@](C)(N)C(=O)O
measured_property: pIC50
Give bare numbers, as −log10 of the molar value.

Req: # input molecule: CC[C@H](C)[C@@H]1NC(=O)[C@@](C)(NC(=O)[C@H](CCCNC(=N)N)NC(=O)[C@H](CC(C)C)NC(=O)[C@@H](NC(=O)[C@H](CCC(N)=O)N(C)C(=O)[C@H](CC(C)C)NC(C)=O)[C@@H](C)O)CCCC=CCCC[C@@](C)(C(=O)N[C@@H](CC2CCC2)C(=O)N[C@@H](Cc2ccc3ccccc3c2)C(N)=O)NC(=O)[C@H](CCCNC(=N)N)NC(=O)[C@H](CCC(N)=O)NC1=O [SEQ ID NO: 108, L(N-methylQ)TLRXIQRX(CBA)(2-Nal)] (Ac-L[NMeQ]TLR[S5]IQR[S5][Cba][2Nal]-NH2; staple 6-10) ; wanted: its pIC50
Resp: 5.51
